Target: T1, AFP158/HLA-A*02:01 complex (human)
T1 construct: biotinylated on the BSP by BirA for ELISA and panning; also called biotinylated AFP158/HLA-A*02:01 complex; Bio-AFP158
Assay: SPR, crude scFv captured;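 further: Peptide–MHC complex flowed at several concentrations over sensorchip-captured scFv, Kd derived from on- and off-rates obtained from the association and dissociation curves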
Experimental readout: Kd (nM)
Write it as a number; the unit nM goes unstated.

AS170036 VL1VH1-VHS57R (scFv) scFv: QSALTQPRSVSGSPGQSVTISCAGTSSDVGSENYVSWYQQHPGKAPKLMIYQVNKRASGVPDRFSGSKSGNTASLTISGLQAEDEADYYCASYRSSDHNIVFGGGTKLTVLGGGGSGGGGSGGGGSEVQLVESGGGLVQPGGSLRLSCAASGFTFSSYAMSWVRQAPGKGLEWVSTINSGTGRPYYADSVKGRFTISRDNSKNTLYLQMNSLRAEDTAVYYCAKNFFDGSWFLGPPAMDYWGQGTLVTVSSHHHHHH : 88
AS170036 VL1VH1 HG56D (scFv) scFv: QSALTQPRSVSGSPGQSVTISCAGTSSDVGSENYVSWYQQHPGKAPKLMIYQVNKRASGVPDRFSGSKSGNTASLTISGLQAEDEADYYCASYRSSDHNIVFGGGTKLTVLGGGGSGGGGSGGGGSEVQLVESGGGLVQPGGSLRLSCAASGFTFSSYAMSWVRQAPGKGLEWVSTINSGTDSPYYADSVKGRFTISRDNSKNTLYLQMNSLRAEDTAVYYCAKNFFDGSWFLGPPAMDYWGQGTLVTVSSHHHHHH : 230
AS170036 VL1VH1 HL107A (scFv) scFv: QSALTQPRSVSGSPGQSVTISCAGTSSDVGSENYVSWYQQHPGKAPKLMIYQVNKRASGVPDRFSGSKSGNTASLTISGLQAEDEADYYCASYRSSDHNIVFGGGTKLTVLGGGGSGGGGSGGGGSEVQLVESGGGLVQPGGSLRLSCAASGFTFSSYAMSWVRQAPGKGLEWVSTINSGTGSPYYADSVKGRFTISRDNSKNTLYLQMNSLRAEDTAVYYCAKNFFDGSWFAGPPAMDYWGQGTLVTVSSHHHHHH : 3300
AS170036 VL1VH1 HP58F (scFv) scFv: QSALTQPRSVSGSPGQSVTISCAGTSSDVGSENYVSWYQQHPGKAPKLMIYQVNKRASGVPDRFSGSKSGNTASLTISGLQAEDEADYYCASYRSSDHNIVFGGGTKLTVLGGGGSGGGGSGGGGSEVQLVESGGGLVQPGGSLRLSCAASGFTFSSYAMSWVRQAPGKGLEWVSTINSGTGSFYYADSVKGRFTISRDNSKNTLYLQMNSLRAEDTAVYYCAKNFFDGSWFLGPPAMDYWGQGTLVTVSSHHHHHH : 1700

Let's switch to this binder now.
Prompt line: Give reported Kd value for AS170036 VL1VH1 HP109A (scFv) scFv: QSALTQPRSVSGSPGQSVTISCAGTSSDVGSENYVSWYQQHPGKAPKLMIYQVNKRASGVPDRFSGSKSGNTASLTISGLQAEDEADYYCASYRSSDHNIVFGGGTKLTVLGGGGSGGGGSGGGGSEVQLVESGGGLVQPGGSLRLSCAASGFTFSSYAMSWVRQAPGKGLEWVSTINSGTGSPYYADSVKGRFTISRDNSKNTLYLQMNSLRAEDTAVYYCAKNFFDGSWFLGAPAMDYWGQGTLVTVSSHHHHHH
Response line: 2700
